Ref: paper PMC12073402

Each entry below lists one item and its recorded half-life value.
methodNotes: Metabolic stability in human liver microsomes (LC-MS/MS)
Type: in vitro ADME
measurementSetup: both sexes, human, liver microsomes, Species Human; read-out: T1/2 (half-life) in human liver microsomes (converted)
propertyName: half-life

                                   compound  recordedresult
0  Cn1cc(-c2cnc3ccc(NC(=O)Nc4ccc(F)c(C(F)(F)F)c4)cc3n2)cn1 [51-106]          50.2 h
1  Cn1cc(-c2cnc3ccc(NC(=O)Nc4cccc(C(F)(F)F)c4F)cc3n2)cn1 [Analog 84]          13.6 h

* * *

methodNotes: Pharmacokinetic studies, oral and intravenous dosing
Assay type: in vivo, CD1 mice
measurementSetup: CD1, mouse, in vivo, po, 10 mg/kg, CD1 mice; 10 mg/kg; Oral; read-out: Bioavailability (%F)
propertyName: bioavailability (%)

                                   compound     propertyname  unitabbrev  recordedresult
0  Cn1cc(-c2cnc3ccc(NC(=O)Nc4ccc(F)c(C(F)(F)F)c4)cc3n2)cn1 [51-106]  bioavailability           %            62.3

* * *

methodNotes: Pharmacokinetic studies, oral and intravenous dosing
Format: in vivo, CD1 mice
measurementSetup: mouse, in vivo; CD1 mice; 10 mg/kg; Intravenous
propertyName: AUC(0-t) (ng·h/mL)

>>> df
                                        mol  propertyname  unitabbrev  recordedresult
0  Cn1cc(-c2cnc3ccc(NC(=O)Nc4ccc(F)c(C(F)(F)F)c4)cc3n2)cn1      AUC(0-t)     ng·h/mL            8960

* * *

methodNotes: Pharmacokinetic studies, oral and intravenous dosing
Type: in vivo, CD1 mice
measurementSetup: mouse, in vivo; CD1 mice; 10 mg/kg; Intravenous; read-out: MRT 0-∞
propertyName: MRT inf (h)

>>> print(df.to_string())
                                   compound  propertyname  recordedresult
0  Cn1cc(-c2cnc3ccc(NC(=O)Nc4ccc(F)c(C(F)(F)F)c4)cc3n2)cn1 [51-106]       MRT inf             2.2

* * *

methodNotes: Pharmacokinetic studies, oral and intravenous dosing
Type: in vivo, CD1 mice
measurementSetup: mouse, in vivo; CD1 mice; 10 mg/kg; Intravenous; read-out: Vss
propertyName: Vd (L/kg)

                                        mol  propertyname  recordedresult
0  Cn1cc(-c2cnc3ccc(NC(=O)Nc4ccc(F)c(C(F)(F)F)c4)cc3n2)cn1            Vd             2.5

* * *

methodNotes: Pharmacokinetic studies, oral and intravenous dosing
Format: in vivo, CD1 mice
measurementSetup: mouse, in vivo; CD1 mice; 10 mg/kg; Intravenous
propertyName: Cmax

                                   compound  propertyname  recordedresult
0  Cn1cc(-c2cnc3ccc(NC(=O)Nc4ccc(F)c(C(F)(F)F)c4)cc3n2)cn1 [51-106]          Cmax      4380 ng/mL

* * *

System: HCT116 MAP3K1 WT cells
methodNotes: PrestoBlue growth inhibition assay
Type: cell-based
measurementSetup: Homo sapiens, HCT-116, 72 h
pIC50: −log10 of the molar value.
propertyName: pIC50

>>> df
                                        mol           subjectoftest  recordedresult
0  Cn1cc(-c2cnc3ccc(NC(=O)Nc4ccc(F)c(C(F)(F)F)c4)cc3n2)cn1  HCT116 MAP3K1 WT cells           ~5.74
